assay: NCI Yeast Anticancer Drug Screen. Data for the CLN2oe strain (AID 163);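 note: 0% = growth of vehicle-only control cultures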; details: S. cerevisiae CLN2oe strain, at 1.2 µM, hits give high values
The panel holds about 79,000 compounds, 15% with a hit somewhere; the sample as a whole holds those more often.
test readout: growth inhibition (%)
Form entry: value (%) — number only.

{"columns": ["compound", "observed"],
 "data": [
  ["COc1cc(O)c2c(c1O)C(=O)c1cc(C)ncc1C2=O", 16],
  ["COc1ccc(/C=C2\\NC(=S)N(/C=C3\\C(=O)Oc4ccccc4C3=O)C2=O)cc1", -6],
  ["C(=Nc1ccc(-c2cc(-c3ccccc3)nc3ccc4ccccc4c23)cc1)c1ccccc1", 29],
  ["CC(C)(C)CC(C)(C)c1cc(O)c(O)c(CN2CCCCC2)c1", -3]
]}

Q. For CCc1c[n+]([O-])c(C)cc1[N+](=O)[O-] , what is its reported growth inhibition?
A. -2

Q. Record: COc1c(O)c(C=O)c(Br)c(C=O)c1O
A. 2

Q. Record: CCCCCCC(O)CNCc1ccnc2ccc(OC)cc12 (centres undefined)
A. 9

Q. Record: N#CC(=Nc1ccccc1F)Nc1ccccc1F
A. 1

Q. Record: CC(C)(C)N=C(NO)c1ccccc1
A. -9

Q. Record: OCC(CO)C(c1cccc2ccccc12)c1cccc2ccccc12
A. -2

Q. Record: C#CCN(Cc1ccc2nc(N)[nH]c(=O)c2c1)c1ccc(C(=O)NC(CCC(=O)O)C(=O)O)cc1 (centres undefined)
A. 3

Q. Record: COc1nc2c(c(=O)n1C)N=C(c1ccccc1)[C@H](C(CC(=O)c1ccccc1)c1ccccc1)C(c1ccccc1)N2 (some centres undefined)
A. 10

---

experiment: NCI Yeast Anticancer Drug Screen. Data for the rad50 strain (AID 155);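 note: 0% = growth of vehicle-only cultures of the same strain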; conditions: S. cerevisiae rad50 strain growth inhibition; at 3.7 µM; hits give high values
The panel holds about 79,000 compounds, 15% with a hit somewhere; the sample as a whole holds those more often. Active and inactive are the calls of the source. Cut-off read from the data, not from the text of the source: active = growth inhibition above about 70%; inactive = the rest.
test readout: growth inhibition

For orientation, consider the following solved cases.
{"columns": ["compound", "test readout", "observed"],
 "data": [
  ["CC1=C(C(=O)NCc2ccccc2)C(c2ccccc2)C(C(=O)NCc2ccccc2)=C(C)N1", "growth inhibition", "21% (inactive)"],
  ["Oc1cccc2cc(Cl)cnc12", "growth inhibition", "-13% (inactive)"],
  ["O=C(O)c1ccccc1/C=N/N=C1c2ccccc2-c2ccccc21", "growth inhibition", "-6% (inactive)"],
  ["COc1ccc(/C=C/C(=O)c2ccccc2)cc1OC", "growth inhibition", "1% (inactive)"],
  ["COC(=O)/C=C(/C(=O)OC)C(Cl)(Cl)Cl", "growth inhibition", "4% (inactive)"]
]}

Q. For O=C1c2ccccc2C(=O)c2cc(CCl)ccc21 , what is its reported growth inhibition?
A. 6% (inactive)

Q. Record: CC(C)(C)c1ccc(NS(=O)(=O)c2ccc(N)cc2)cc1
A. 3% (inactive)

Q. Record: CC(C)C(C)/C=C\C(C)C1CCC2C3=CC=C4CC(O)CCC4(C)C3CCC21C (centres undefined)
A. 5% (inactive)

Q. Record: O=C1C(Br)=C(c2ccccc2)O/C1=C/C(=O)c1ccc(Br)cc1
A. 5% (inactive)

---

test: NCI Yeast Anticancer Drug Screen. Data for the bub3 strain (AID 167); conditions: S. cerevisiae bub3 mutant strain, at 11.0 µM, hits give high values
The panel holds about 79,000 compounds, 15% with a hit somewhere; the sample as a whole holds those more often.
Overview of recorded growth inhibition for various molecules
Form entry: value (%) — number only.

For orientation, consider the following solved cases.
{"columns": ["structure smiles", "growth inhibition, %"],
 "data": [
  ["CCn1c(O)c(C=Nc2ccccc2)s/c1=N/Nc1nc(-c2ccccc2)cs1", -4],
  ["O=C(/C=C/c1cc(Cl)cc(Cl)c1O)c1cccc(O)c1", 39]
]}

Next molecule, growth inhibition to be filled in.
Q. For C=C(Cl)COC(=O)Nc1cccc(Cl)c1 , what is its reported growth inhibition?
A. -8
